Data credit: patent US20250214969A1

- system.under.test: truncated His-MBP-Tev-KLHDC2 (residues 1-363) (Homo sapiens, UniProt Q9Y2U9)
- Construct: truncated His -MBP-Tev-KLHDC2 (residues 1-363) purified from E. coli; made in house; host or cells: E. coli
- Sequence (Q9Y2U9 1-363): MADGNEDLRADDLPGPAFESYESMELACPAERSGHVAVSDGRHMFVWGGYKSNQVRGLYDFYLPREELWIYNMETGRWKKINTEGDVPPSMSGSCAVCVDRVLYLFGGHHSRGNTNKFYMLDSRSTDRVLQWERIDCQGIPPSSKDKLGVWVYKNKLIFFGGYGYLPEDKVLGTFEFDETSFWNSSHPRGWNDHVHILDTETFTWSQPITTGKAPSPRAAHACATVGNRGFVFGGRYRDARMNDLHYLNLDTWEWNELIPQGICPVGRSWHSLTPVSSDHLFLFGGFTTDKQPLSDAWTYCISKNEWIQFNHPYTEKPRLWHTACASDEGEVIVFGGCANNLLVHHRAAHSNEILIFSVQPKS
- test.details: KLHDC2 FP competition binding assay
- measurement.parameters: 15 nM KLHDC2 (residues 1-363), 10 nM fluorescein-labeled diglycine peptide probe, read-out: KLHDC2 binding Human FP: average external IC50
attribute.measured: IC50

// known answers, use as guide
molecule | attribute.measured | value
CC(C)(C)OC(=O)NCCCCCCn1ccc2c(C(=O)Nc3ccc(=O)n(CC(=O)O)c3)cccc21 | IC50 | 0.5 to 5 µM
Cn1ccc(N2CC(C(=O)O)CC2=O)n1 (stereo not drawn) | IC50 | > 5 µM

The molecule O=C(O)Cn1cc(NC(=O)COc2cc(Cl)cc(Cl)c2)ccc1=O showed IC50 equal to > 5 µM

The molecule O=C(O)Cn1cc(Nc2ncnc3c(-c4cccnc4)cccc23)ccc1=O showed IC50 equal to > 5 µM

---

- system.under.test: truncated His-MBP-Tev-KLHDC2 (residues 1-363) (Homo sapiens)
- Construct: truncated His -MBP-Tev-KLHDC2 (residues 1-363) purified from E. coli; made in house; host or cells: E. coli
- test.details: KLHDC2 FP competition binding assay
- measurement.parameters: 15 nM KLHDC2 (residues 1-363), 10 nM fluorescein-labeled diglycine peptide probe, read-out: KLHDC2 binding Human FP: average external IC50
pIC50: −log10 of the molar value.
attribute.measured: pIC50

compound | pIC50
N#Cc1cc(=O)n(CC(=O)O)cc1NC(=O)[C@H]1CCCN(c2cccnc2)C1 | 5.30 to 6.30

The compound O=C(O)CN1C(=O)Cc2ccccc21 showed pIC50 equal to < 5.30

---

- system.under.test: truncated His-MBP-Tev-KLHDC2 (residues 1-363) (Homo sapiens)
- Construct: truncated His -MBP-Tev-KLHDC2 (residues 1-363) purified from E. coli; made in house; host or cells: E. coli
- test.details: KLHDC2 FP competition binding assay
- measurement.parameters: 15 nM KLHDC2 (residues 1-363), 10 nM fluorescein-labeled diglycine peptide probe, read-out: KLHDC2 binding Human FP: average external IC50
pIC50: −log10 of the molar value.
attribute.measured: pIC50

// known answers, use as guide
molecule | pIC50
Cn1cc(N2CC(C(=O)O)CC2=O)cn1 (stereo not shown) | < 5.30
O=C(O)Cn1cc(-c2ccccc2F)ccc1=O | < 5.30
O=C(O)Cn1cc(-c2cccc(CN3CCCCC3)c2)ccc1=O | < 5.30
O=C(O)Cn1cc(NC(=O)COc2cccnc2)ccc1=O | < 5.30
COc1cc(-c2cncs2)ccc1C(=O)Nc1ccc(=O)n(CC(=O)O)c1 | < 5.30
CN(C)C(=O)c1ccc(-c2ccc(=O)n(CC(=O)O)c2)cc1 | < 5.30
Cc1ccc(C(=O)Nc2ccc(=O)n(CC(=O)O)c2)cc1-c1ccccc1 | < 5.30
O=C(O)Cn1cc(N2CCc3cccc(-c4cccnc4)c3C2=O)ccc1=O | < 5.30

The molecule O=C(O)Cn1cc(NC(=O)c2ccc(-c3ccccc3)s2)ccc1=O showed pIC50 equal to < 5.30

The molecule Cc1cc(=O)n(CC(=O)O)cc1NC(=O)c1cccc(-c2cccnc2)c1 showed pIC50 equal to 5.30 to 6.30

---

compounds and their reported pIC50
- system.under.test: truncated His-MBP-Tev-KLHDC2 (residues 1-363) (Homo sapiens, UniProt Q9Y2U9)
- Construct: truncated His -MBP-Tev-KLHDC2 (residues 1-363) purified from E. coli; made in house; host or cells: E. coli
- test.details: KLHDC2 FP competition binding assay
- measurement.parameters: 15 nM KLHDC2 (residues 1-363), 10 nM fluorescein-labeled diglycine peptide probe, read-out: KLHDC2 binding Human FP: average external IC50
pIC50: −log10 of the molar value.

// known answers, use as guide
compound | system.under.test | pIC50
CCOC(=O)Cn1cc(NC(=O)c2ccc(CCCCCCNC(=O)OC(C)(C)C)c(-c3cccnc3)c2)ccc1=O [I-150] | truncated His-MBP-Tev-KLHDC2 (residues 1-363) (Homo sapiens, UniProt Q9Y2U9) | < 5.30
O=C(O)Cn1cc(/C=C/c2ccccc2)ccc1=O [I-326] | truncated His-MBP-Tev-KLHDC2 (residues 1-363) (Homo sapiens, UniProt Q9Y2U9) | < 5.30
CCc1cncc(N2CCC[C@H](C(=O)Nc3ccc(F)c(CC(=O)O)c3)C2)c1 [I-23] | truncated His-MBP-Tev-KLHDC2 (residues 1-363) (Homo sapiens, UniProt Q9Y2U9) | 6.30 to 7.30
O=C(O)Cn1cc(NC(=O)c2ccccc2C(F)F)ccc1=O [I-321] | truncated His-MBP-Tev-KLHDC2 (residues 1-363) (Homo sapiens, UniProt Q9Y2U9) | < 5.30

The compound O=C(O)Cn1cc(NC(=O)c2cccc(-c3cccs3)c2)ccc1=O [I-172] showed pIC50 equal to < 5.30

The compound CN(C)C(=O)c1ccc(-c2ccc(=O)n(CC(=O)O)c2)cc1Cl [I-388] showed pIC50 equal to < 5.30

The compound O=C(O)Cn1cc(-c2cccc(CO)c2)ccc1=O [I-291] showed pIC50 equal to < 5.30

---

- system.under.test: truncated His-MBP-Tev-KLHDC2 (residues 1-363) (Homo sapiens, UniProt Q9Y2U9)
- Construct: truncated His -MBP-Tev-KLHDC2 (residues 1-363) purified from E. coli; made in house; host or cells: E. coli
- test.details: KLHDC2 HTRF binding assay
- measurement.parameters: 1 nM KLHDC2 (residues 1-363), fluorescein-labeled diglycine peptide probe
compounds and their reported IC50

compound | value
Cc1ccc2cc(C(=O)Nc3ccc(=O)n(CC(=O)O)c3)cnc2c1 [I-189] | > 5 µM
O=C(O)Cn1cc(NC(=O)COc2ccc(C(F)(F)F)cc2)ccc1=O [I-256] | > 5 µM
O=C(O)Cn1cc(NC(=O)c2cccc(-c3ccccc3)c2)ccc1=O [I-315] | 0.5 to 5 µM

With truncated His-MBP-Tev-KLHDC2 (residues 1-363) (Homo sapiens, UniProt Q9Y2U9) as the test system, O=C(O)Cn1cc(-c2cccc(CN3CCOCC3)c2)ccc1=O [I-304] showed IC50 of > 5 µM

With truncated His-MBP-Tev-KLHDC2 (residues 1-363) (Homo sapiens, UniProt Q9Y2U9) as the test system, Cc1ccc(C#N)c(-c2ccc(=O)n(CC(=O)O)c2)c1 [I-364] showed IC50 of > 5 µM

With truncated His-MBP-Tev-KLHDC2 (residues 1-363) (Homo sapiens, UniProt Q9Y2U9) as the test system, COc1ccc(-c2cc(C)ccc2C)cc1CC(=O)O [I-354] showed IC50 of > 5 µM

With truncated His-MBP-Tev-KLHDC2 (residues 1-363) (Homo sapiens, UniProt Q9Y2U9) as the test system, O=C(O)Cn1cc(NC(=O)[C@@H]2C[C@H](C(F)(F)F)CN(c3cccnc3)C2)ccc1=O [I-65] showed IC50 of 0.05 to 0.5 µM

With truncated His-MBP-Tev-KLHDC2 (residues 1-363) (Homo sapiens, UniProt Q9Y2U9) as the test system, Cc1cc(-c2ccc(=O)n(CC(=O)O)c2)c(C)cc1F [I-348] showed IC50 of > 5 µM

With truncated His-MBP-Tev-KLHDC2 (residues 1-363) (Homo sapiens, UniProt Q9Y2U9) as the test system, O=C(O)Cn1cc(NC(=O)[C@H]2Cc3ccccc3N(c3cccnc3)C2)ccc1=O [I-12] showed IC50 of > 5 µM

With truncated His-MBP-Tev-KLHDC2 (residues 1-363) (Homo sapiens, UniProt Q9Y2U9) as the test system, O=C(O)Cn1cc(NC(=O)c2ccc3cc(Cl)ccc3c2)ccc1=O [I-177] showed IC50 of 0.5 to 5 µM

---

- system.under.test: truncated His-MBP-Tev-KLHDC2 (residues 1-363) (Homo sapiens)
- Construct: truncated His -MBP-Tev-KLHDC2 (residues 1-363) purified from E. coli; made in house; host or cells: E. coli
- test.details: KLHDC2 FP competition binding assay
- measurement.parameters: 15 nM KLHDC2 (residues 1-363), 10 nM fluorescein-labeled diglycine peptide probe, read-out: KLHDC2 binding Human FP: average external IC50
pIC50: −log10 of the molar value.
attribute.measured: pIC50

// known answers, use as guide
compound | pIC50
Cc1cccc(-c2ccc(O)c(CC(=O)O)c2)c1 | < 5.30
COc1cc(C(=O)Nc2ccc(=O)n(CC(=O)O)c2)cc(-c2ccccc2)c1 | < 5.30
O=C(O)C1CC(=O)N(C2CC2)C1 (centres unmarked) | < 5.30
O=C(O)Cn1cc(NC(=O)[C@@H]2CCCN(c3cccnc3)C2)ccc1=O | 5.30 to 6.30

Continue with the compound presented below.
The compound COc1cncc(N2CCC[C@H](C(=O)Nc3ccc(F)c(CC(=O)O)c3)C2)c1 showed pIC50 equal to 6.30 to 7.30
